system: SNB-19; assay: NCI60 growth inhibition, SNB-19; assay type: cell-based; conditions: CNS Cancer; further: test concentration or dose not given here
measure: Growth inhibition (% control) GIPRCNT
Give a bare numeral; the unit % control is implied.

Query :: Give the measured Growth inhibition (% control) GIPRCNT of `CN1CCN(c2ccc3nc4c(nc3c2C(F)(F)F)C(=O)c2ncccc2C4=O)CC1` .
Result :: 17.8598

Query :: Give the measured Growth inhibition (% control) GIPRCNT of `O=C1c2cccnc2C(=O)c2nc3cc(N4CCN(C5CC5)CC4)ccc3nc21` .
Result :: −81.52

Query :: Give the measured Growth inhibition (% control) GIPRCNT of `Cc1ccc2c(n1)C(=O)C(Cl)=C(Nc1ccc(N3CCN(C)CC3)cc1)C2=O` .
Result :: 94.6

Query :: Give the measured Growth inhibition (% control) GIPRCNT of `CN1CCN(c2cc(F)c(NC3=C(Cl)C(=O)c4ncccc4C3=O)c(F)c2)CC1` .
Result :: 96.33
